Reported WGB In Vitro growth inhibition 0-3 scale values are given for each entry in this list.
# Test system: Septoria nodorum
# EXPERIMENT_SUMMARY: Wheat Glume Blotch (WGB) In Vitro
# Type: cell-based
# Design: key: 0: no inhibition of mycelial growth; 1: slight inhibition of mycelial growth; 2: moderate inhibition of mycelial growth; 3: strong inhibition of mycelial growth
# CONDITION: 5.0 ppm, 4-6 days at 25° C.

What measured WGB In Vitro growth inhibition 0-3 scale goes with C[C@@H]1CCC[C@H](c2ccccc2NC(=O)c2cn(C)nc2C(F)F)C1 (relative stereo) ?
2

Bench note: what WGB In Vitro growth inhibition 0-3 scale did Cn1cc(C(=O)Nc2ccccc2[C@H]2CC[C@H](C)CC2)c(C(F)(F)F)n1 show?
2

Next:
Requested field: WGB In Vitro growth inhibition 0-3 scale. Item: CCO[C@H]1CC[C@H](c2ccccc2NC(=O)c2cn(C)nc2C(F)F)CC1
1

Quick check: WGB In Vitro growth inhibition 0-3 scale of C[C@H]1CCC[C@H](c2ccccc2NC(=O)c2cn(C)nc2C(F)F)C1 (relative stereo) ?
0

* * *

# maps each entry to its WGB In Vitro growth inhibition 0-3 scale
# Tested on: Septoria nodorum
# EXPERIMENT_SUMMARY: Wheat Glume Blotch (WGB) In Vitro
# Format: cell-based
# Design: key: 0: no inhibition of mycelial growth; 1: slight inhibition of mycelial growth; 2: moderate inhibition of mycelial growth; 3: strong inhibition of mycelial growth
# CONDITION: 5.0 ppm, 4-6 days at 25° C.
Output: the number by itself.

Check out these entries, answers already filled in.
Report WGB In Vitro growth inhibition 0-3 scale for Cn1cc(C(=O)Nc2ccccc2[C@@H]2CCC[C@@H](C(F)(F)F)C2)c(C(F)F)n1 (relative stereo) [Number 6] please.
1

Looking for the measured WGB In Vitro growth inhibition 0-3 scale of Cn1cc(C(=O)Nc2ccccc2C2CCC(C)(C)CC2)c(C(F)F)n1 [Number 5] , can you help?
2

Next item in the queue.
Need WGB In Vitro growth inhibition 0-3 scale of CC[C@H]1CC[C@@H](c2ccccc2NC(=O)c2cn(C)nc2C(F)F)CC1 [Number 1] , thanks.
3

* * *

# MEASUREMENT_TARGET: Succinate Dehydrogenase
# EXPERIMENT_SUMMARY: Enzyme Inhibition I-50 (WGB): Succinate Dehydrogenase Assay using Septoria nodorum mitochondria
# Type: biochemical
# CONDITION: DCPIP reduction, read-out: WGB enzyme I-50
# pIC50 values compiled below
// pIC50: -log10(molar conc.)

Before answering, review these 6 worked examples.
Returns the measured pIC50 for the input compound. Input: C[C@@H]1CCC[C@H](c2ccccc2NC(=O)c2cn(C)nc2C(F)F)C1 (relative stereo) [Number 2]
7.43

So what's the measured pIC50 for this one? Cn1cc(C(=O)Nc2ccccc2[C@@H]2CCC[C@@H](C(F)(F)F)C2)c(C(F)F)n1 (relative stereo) [Number 6]
6.28

So what does the record say about pIC50 for CCO[C@H]1CC[C@H](c2ccccc2NC(=O)c2cn(C)nc2C(F)F)CC1 [Number 7] ?
6.77

Reported pIC50, compound Cn1cc(C(=O)Nc2ccccc2C2CCC(C)(C)CC2)c(C(F)F)n1 [Number 5] : ____
8.10

Would you kindly share the measured pIC50 for Cn1cc(C(=O)Nc2ccccc2[C@H]2CC[C@H](C)CC2)c(C(F)(F)F)n1 [Number 4] ?
7.54

What value of pIC50 has been reported for the following compound? C[C@H]1CCC[C@H](c2ccccc2NC(=O)c2cn(C)nc2C(F)F)C1 (relative stereo) [Number 3]
7.30

Next up:
Any idea what its pIC50 is? The compound is CC[C@H]1CC[C@@H](c2ccccc2NC(=O)c2cn(C)nc2C(F)F)CC1 [Number 1]
7.82
